Some binders, each annotated with its measured Inhibition of IL-17 production, IC50.
- Experimental system: T1, recombinant human IL-23 (hrIL-23), produced at Centocor (human, UniProt P29460 23-328)
- T1 sequence 1: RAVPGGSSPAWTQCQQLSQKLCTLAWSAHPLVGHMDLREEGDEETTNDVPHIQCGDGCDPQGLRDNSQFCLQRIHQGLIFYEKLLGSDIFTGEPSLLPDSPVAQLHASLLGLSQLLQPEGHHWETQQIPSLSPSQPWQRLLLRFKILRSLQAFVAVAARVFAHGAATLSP
- T1 sequence 2: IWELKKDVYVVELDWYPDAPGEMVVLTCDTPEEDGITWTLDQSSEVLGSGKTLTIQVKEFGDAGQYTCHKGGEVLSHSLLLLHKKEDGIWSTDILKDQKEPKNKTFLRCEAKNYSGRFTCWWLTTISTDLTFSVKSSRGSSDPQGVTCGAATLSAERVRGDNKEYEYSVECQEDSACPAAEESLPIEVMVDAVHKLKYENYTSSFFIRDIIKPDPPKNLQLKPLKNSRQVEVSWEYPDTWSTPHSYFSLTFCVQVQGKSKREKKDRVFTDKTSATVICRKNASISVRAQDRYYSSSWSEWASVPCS
- Method description: cell-based or functional assay
Quantity measured: Inhibition of IL-17 production, IC50 (µg/mL)

1. mAb MOR05058 (antibody, IgG1, V domains shown) VH: QVELVQSGAEVKKPGESLKISCKGSGYSFSNYWIGWVRQMPGKGLEWMGIIDPSNSYTNYSPSFQGQVTISADKSISTAYLQWSSLKASDTAMYYCARWYYKPFDVWGQGTLVTVSS VL: DIVLTQPPSVSGAPGQRVTISCTGSSSNIGSGYDVHWYQQLPGTAPKLLIYGNSKRPSGVPDRFSGSKSGTSASLAITGLQSEDEADYYCSSWTPVFGGGTKLTVL = 0.00285
2. mAb MOR05061 (antibody, IgG1, V domains shown) VH: QVELVESGGGLVQPGGSLRLSCAASGFTFSSFGMSWVRQAPGKGLEWVSNISSSGSSTYYADSVKGRFTISRDNSKNTLYLQMNSLRAEDTAVYYCARYWGTPYLMQFDNWGQGTLVTVSS VL: DIALTQPASVSGSPGQSITISCTGTSSDVGGYNSVSWYQQHPGKAPKLMIYSVSSRPSGVSNRFSGSKSGNTASLTISGLQAEDEADYYCSSYVFGGGTKLTVL = 0.309
3. mAb MOR05043 (antibody, IgG1, V domains shown) VH: QVELVQSGAEVKKPGESLKISCKGSGYSFSNYWIGWVRQMPGKGLEWMGIPSTYSPSFQGQVTISADKSISTAYLQWSSLKASDTAMYYCARWYYKPFDVWGQGTLVTVSS VL: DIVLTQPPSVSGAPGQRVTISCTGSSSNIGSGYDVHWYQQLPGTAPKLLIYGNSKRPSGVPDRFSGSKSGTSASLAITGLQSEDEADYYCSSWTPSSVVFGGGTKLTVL = 0.0144
